B1: KCNK9 (parent)
chain: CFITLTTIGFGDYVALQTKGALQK

- Variants of: B1
- PROTOCOL_SUMMARY: protein stability index of a GFP-peptide fusion (GPS, HEK-293T) (PSI 1-6); higher = more stable;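 further: lentivirally expressed fusions sorted by FACS into six bins by GFP to DsRed ratio, PSI derived from sequencing read proportions per bin multiplied by bin number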
- TEST_PARAMETERS: c terminus: a fixed tail appended
Binary call on protein stability index: Fulfilled from 2 upward, Not fulfilled beneath that.

SEQUENCE_VARIANT	CAT
Q23V	Fulfilled
V14A	Fulfilled
D12R	Fulfilled
C1H	Fulfilled
G20W	Fulfilled
T4N	Fulfilled
L22E	Fulfilled
L22G	Fulfilled
K19I	Fulfilled
L5A	Not fulfilled
D12G	Fulfilled
Q17F	Fulfilled
L5C	Fulfilled
T6R	Fulfilled
Y13I	Fulfilled
A15S	Fulfilled
T7N	Not fulfilled
T18S	Fulfilled
K24N	Fulfilled
A21T	Fulfilled
T6Q	Not fulfilled
F10G	Fulfilled
F10H	Fulfilled
T7K	Not fulfilled
K24A	Fulfilled
G9Y	Not fulfilled
F2I	Fulfilled
K24D	Fulfilled
A21S	Fulfilled
Q17D	Fulfilled
L5S	Not fulfilled
G11A	Fulfilled
G9F	Fulfilled
F2A	Not fulfilled
Q23W	Fulfilled
A15R	Fulfilled
T18Q	Fulfilled
C1T	Fulfilled
I8P	Fulfilled
T4E	Fulfilled
G11D	Fulfilled
T18F	Not fulfilled
T18I	Fulfilled
Q17R	Fulfilled
I8K	Not fulfilled
A15G	Fulfilled
V14R	Fulfilled
I8F	Fulfilled
A21L	Fulfilled
D12F	Fulfilled
Q23A	Fulfilled
Q23F	Fulfilled
L22N	Not fulfilled
D12E	Fulfilled
G11I	Fulfilled
G20E	Fulfilled
T18D	Not fulfilled
I3K	Fulfilled

The reported measurements were obtained from the supplement of paper PMC10567573.
